- experiment: Caco-2 cell monolayer membrane transport assay (Papp and recovery)
- Format: in vitro ADME
- condition-details: human, Caco-2, Papp A-B, Sample-01
reported-endpoint: Papp A→B (×10⁻⁶ cm/s)
The reply should be a number in ×10⁻⁶ cm/s, with the unit left off.

Q: State the recorded Papp A→B for this entry: CC(=O)O[C@H]1C(=O)[C@@]2(C)[C@H]([C@H](OC(=O)c3ccccc3)[C@]3(O)C[C@H](OC(=O)[C@H](O)[C@@H](NC(=O)c4ccccc4)c4ccccc4)C(C)=C1C3(C)C)[C@]1(OC(C)=O)CO[C@@H]1C[C@@H]2O [Paclitaxel, reference compound]
Ans: 1.02

New cases:
Q: Item COCCc1ccc(OCC(O)CNC(C)C)cc1 (centres unmarked) [Metoprolol, reference compound] has what recorded Papp A→B?
Ans: 28.1

---

// reported recovery for each item listed
- experiment: Caco-2 cell monolayer membrane transport assay (Papp and recovery)
- Type: in vitro ADME
- condition-details: human, Caco-2, Recovery rate in mass, Sample-01
Phrase the answer as number then unit, nothing more needed.

Q: Item CC[C@H]1OC(=O)[C@H](C)[C@@H](O[C@H]2C[C@@](C)(OC)[C@@H](O)[C@H](C)O2)[C@H](C)[C@@H](O[C@@H]2O[C@H](C)C[C@H](N(C)C)[C@H]2O)[C@](C)(O)C[C@@H](C)C(=O)[C@H](C)[C@@H](O)[C@]1(C)O [Erythromycin, reference compound] has what recorded recovery?
Ans: 99.6%

Q: Also check CC(=O)O[C@H]1C(=O)[C@@]2(C)[C@H]([C@H](OC(=O)c3ccccc3)[C@]3(O)C[C@H](OC(=O)[C@H](O)[C@@H](NC(=O)c4ccccc4)c4ccccc4)C(C)=C1C3(C)C)[C@]1(OC(C)=O)CO[C@@H]1C[C@@H]2O [Paclitaxel, reference compound]
Ans: 94.6%

Q: Record: COCCc1ccc(OCC(O)CNC(C)C)cc1 (stereo not drawn) [Metoprolol, reference compound]
Ans: 103%

---

- Test system: Caco-2 cell monolayer
- experiment: Caco-2 bidirectional transport, efflux ratio
- condition-details: Caco-2 cell line (21 days), B-A
Quick reference: Papp B-A of the listed items.

Please review the entries below; each comes with its answer.
Q: # lookup: Papp B-A of CO[C@H]1C[C@H]2OC[C@@]2(OC(C)=O)[C@H]2[C@H](OC(=O)c3ccccc3)[C@]34OC(=O)O[C@H]3[C@H](OC(=O)[C@H](O)[C@@H](NC(=O)OC(C)(C)C)c3ccccc3)C(C)=C([C@@H](OC(=O)N(C)C)C(=O)[C@]12C)C4(C)C
Ans: 33.48 10^−6 cm/s

Q: And what about the molecule CO[C@H]1C(=O)[C@]2(C)CC[C@H]3OC[C@@]3(OC(C)=O)[C@H]2[C@H](OC(=O)c2ccccc2)[C@]23OC(=O)O[C@H]2[C@H](OC(=O)[C@H](O)[C@@H](NC(=O)OC(C)(C)C)c2ccccc2)C(C)=C1C3(C)C ?
Ans: 25.26 10^−6 cm/s

Q: Consider next the molecule CO[C@H]1C(=O)[C@]2(C)[C@@H](OC)C[C@H]3OC[C@@]3(OC(C)=O)[C@H]2[C@H](OC(=O)c2ccccc2)[C@]23OC(=O)O[C@H]2[C@H](OC(=O)[C@H](O)[C@@H](NC(=O)OC(C)(C)C)c2ccccc2)C(C)=C1C3(C)C in the same way.
Ans: 18.20 10^−6 cm/s

More entries:
Q: Query: Papp B-A; subject: COC(=O)O[C@H]1C[C@H]2OC[C@@]2(OC(C)=O)[C@H]2[C@H](OC(=O)c3ccccc3)[C@]34OC(=O)O[C@H]3[C@H](OC(=O)[C@H](O)[C@H](CC(C)C)NC(=O)OC(C)(C)C)C(C)=C([C@@H](OC)C(=O)[C@]12C)C4(C)C
Ans: 7.16 10^−6 cm/s
